Reference source for all entries: PubChem BioAssay (NCI)

system: SF-268 CNS; assay: NCI tumour cell line growth inhibition, 48 h
Quantity measured: TGI (µM)
Numbers only, in µM.

Recorded TGI, per entry:
[[record]]
smiles_notation = "CCCN(CCC)CCCNCc1cc(I)cc(C)c1O"
number = 29.4

[[record]]
smiles_notation = "O=C(O)[C@H]1[C@@H](C2CCCCC2)O[C@@H](C2CCCCC2)O[C@H]1C(F)(F)F"
number = 44.2

[[record]]
smiles_notation = "S=c1sc2c(Cl)ncnc2n1-c1ccccc1"
number = 18.5


# evaluate next
// returns reported TGI for input CCCCCCCCCCCOC(=S)NC(C)C 42.7

###

Could you please report measured TGI for the items listed next?
test system: TK-10 renal; experiment: NCI tumour cell line growth inhibition, 48 h

[[record]]
compound = "Nc1ncnc2c1ncn2C1OC(COP(=O)(O)CP(=O)(O)O)C(O)C1O (stereo not given)"
quantity_measured = "TGI"
result = "> 100 µM"


Look at each compound and report its TGI.
1. COC(=O)c1c2c(cc3c1CC1(Cc4ccccc4C1=O)C3)CCC2 (stereo not given)
2. CCOC(=O)c1cn(-c2ccccc2)c(=S)n2c1nc1ccccc12
3. Clc1ccc(-c2ccc(-c3nnc(CCc4nnc(-c5ccc(-c6ccc(Cl)cc6)o5)o4)o3)o2)cc1
4. COC(=O)C(=O)C(C(=O)Nc1cccc(C)c1C)C1Sc2ccccc2NC1=O (stereo not given)

> 100 µM
> 100 µM
> 86 µM
> 25 µM
